Every entry's value here was drawn from patent US11807625B2.

PROTOCOL_DESCRIPTION: PK of compound of Formula (Ia) after single subcutaneous dose of solution formulations in beagle dogs
Type: in vivo
MEASUREMENT_PARAMETERS: male, beagle, dog, plasma, sc, 12 mg/kg, mean ± SD, n = 3 dogs; SC 12 mg/kg; solution U, 500 mg/mL
QUANTITY_MEASURED: half-life (days)
Report as a plain number; the unit days is understood.

Asked: # query: half-life of entry CC(C)(C#Cc1ccc(-c2ccc(Cl)c3c(NS(C)(=O)=O)nn(CC(F)(F)F)c23)c([C@H](Cc2cc(F)cc(F)c2)NC(=O)Cn2nc(C(F)(F)F)c3c2C(F)(F)[C@@H]2C[C@H]32)n1)S(C)(=O)=O
Given back: 18.3
